test: chemical genetic growth profiling, strain panel (AID 1159580);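 further: tested at 20 µM; growth read once vehicle control cultures reached saturation at 30 °C; 1 = growth at the plate median or of vehicle wells; lower values mean less growth of the strain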; conditions: S. cerevisiae deletion strains, growth OD, locus YDR363W, strain ESC2, active compounds read low
Screen size: about 5,500 compounds; about 2,000 (36%) were called active. Roughly 18% stayed inconclusive and do not appear here. This is one part of the list.
measurement_type: normalized growth
Provide a numeric answer; units are not to be included.

CCCN(CCC)CCc1c[nH]c2ccc(C(N)=O)cc12; 0.981
C[C@H]1C2Cc3ccc(O)cc3[C@]1(C)CCN2CC1CC1; 1.02
CC(=O)OCC1=C(C(=O)O)N2C(=O)C(NC(=O)Cc3cccs3)C2SC1 (stereo not given); 1
N[C@@H](Cc1ccc(O)c(I)c1)C(=O)O; 1.01
CCCC(C(=O)OCCN(CC)CC)(c1ccccc1)c1ccccc1; 1

Exam item: // lookup normalized growth for "O=c1cc(-c2ccc(O)cc2)oc2cc(O)cc(O)c12"
Marked response: 0.998

Exam item: One more compound: "O=c1cc(-c2ccc(O)c(O)c2)oc2cc(O)cc(O)c12"
Marked response: 1.02

Exam item: // repeat for OCC1O[C@H](O)C(Cl)C(O)C1O (stereo not given in full) and report
Marked response: 0.977

Exam item: Also "CC1CCN(CC[C@H]2CCCN2S(=O)(=O)c2cccc(O)c2)CC1" ?
Marked response: 0.986

----------
assay: chemical genetic growth profiling, strain panel (AID 1159580);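 further: tested at 20 µM; growth read once vehicle control cultures reached saturation at 30 °C; 1 = growth at the plate median or of vehicle wells; lower values mean less growth of the strain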; details: S. cerevisiae deletion strains, growth OD, locus YDR162C, strain NBP2, active compounds read low
About 2,000 (36%) of roughly 5,500 compounds were called active. Another 18% or so got no clear call; they are omitted. This is one part of the list.
measurement_type: normalized growth
Lab note: write the figure by itself, no unit.

COc1cc2c(cc1-c1cc3cc4ccoc4cc3oc1=O)OCO2; 0.977
Nc1ccncc1; 1.01
CC(=O)Nc1ccccc1; 0.995
CC(CCC(=O)O)[C@H]1CCC2C3CC[C@@H]4C[C@H](O)CC[C@]4(C)C3C[C@H](O)[C@@]21C (stereo partly specified); 0.998
CC1(C)C(=O)C=C[C@@]2(C)C1CC(=O)[C@@]1(C)C3=CC(=O)O[C@@H](c4ccoc4)[C@]3(C)CCC12 (stereo partly specified); 1.01

Exam item: Name the reported normalized growth value associated with the molecule "COc1cc2c(cc1/C=C/C(=O)c1cc(OC)c(OC)cc1OC)OCO2"
Marked response: 0.974

----------
Parameter normalized growth: see the listing below.
test: chemical genetic growth profiling, strain panel (AID 1159580);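 further: tested at 20 µM; growth read once vehicle control cultures reached saturation at 30 °C; 1 = growth at the plate median or of vehicle wells; lower values mean less growth of the strain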; conditions: S. cerevisiae deletion strains, growth OD, locus YHR129C, strain ARP1, active compounds read low
Among all 5,500 compounds or so, about 2,000 (36%) were called active. About 18% were inconclusive and are not listed. Some of the results follow.
Form rule: numeric answer, no unit written next to it.

# example entries with known answers
N[C@@H](Cc1cc(I)c(Oc2cc(I)c(O)c(I)c2)c(I)c1)C(=O)O; 1.04
O=C(O)Cc1cc(I)c(Oc2cc(I)c(O)c(I)c2)c(I)c1; 0.976
CO[C@]12C[C@@H](COC(=O)c3cncc(Br)c3)CN(C)[C@@H]1Cc1cn(C)c3cccc2c13; 1.02

Exam item: If you can, please state the reported normalized growth value of "CCC(=O)Nc1ccc(Cl)c(Cl)c1" .
Marked response: 0.988

Exam item: Field entry: "N[C@H](Cc1ccccc1)C(=O)O"
Marked response: 1.01

Exam item: One more compound: "Cc1cccc(Nc2ccncc2S(=O)(=O)NC(=O)NC(C)C)c1"
Marked response: 1

Exam item: Here is the next compound: COc1cc2c(cc1O)C(Cc1ccc(O)cc1)N(C)CC2 (configuration not stated)
Marked response: 1.02
